target: Spike protein of authentic SARS-CoV-2/MT020880.1 (live virus) (SARS-CoV-2, UniProt P0DTC2 14-1273); assay: cell-based or functional assay
What IC50 (ng/mL), immunofluorescence neutralization assay was measured for each of the following?
Answers are plain numbers, in ng/mL.

binder | measured.result
anti-SARS-CoV-2 antibody 1075 (antibody, V domains shown) VH: QVQLVQSGAEVKKPGASVKVSCKVSGYTLIELSMHWVRQAPGKGLEWMGGFDPEDGETIYAQKFQGRVTMTEDTSTDTAYMELSSLRSEDTAVYYCATEWAYYGSGSYLGYWGQGTLVTVSS VL: EIVMTQSPATLSVSPGERATLSCRASQSVSSNLAWFQQKPGQAPRLLIYGASTRVTVIPARFSGSGSGTEFTLTISSLQSEDFAVYYCQQYNNWPRTFGQGTKVEIKR | 89.6
anti-SARS-CoV-2 antibody 1015 (antibody, V domains shown) VH: EVQLVESGGGLVQPGGSLRLSCAASGFTFSSYWMHWVRQAPGKGLVWVSHINSDGSSTSYADSVKGRFTISRDNAKNTLYLQMNSLRAEDTAVYYCARGLRYFDLDVWGQGTTVTVSS VL: QSVLTQPPSVSEAPRQRVTISCSGSSSNIGNNAVNWYQQLPGKAPKLLIFYDDLLPSGVSDRFSGSKSGTSASLAISGLQSEDEADYYCAAWDDSLNGGVFGGGTKLTVLG | 260
anti-SARS-CoV-2 antibody 1037 (antibody, V domains shown) VH: QITLKESGPTLVKPTQTLTLTCTFSGFSLSTSGVGVGWIRQPPGKALEWLALIYWDDDKRYSPSLKSRLTITKDTSKNQVVLTMTNMDPVDTATYYCAHHTITRINDYWGQGTLVTVSS VL: QSALTQPASVSGSPGQSITISCTATSSDVGAYNYVSWYQQHPGKAPKLMIYDVSKRPSGVSNRFSGSKSGNTASLTISGLQAEDEADYYCSSYTSSSTVFGGGTKLTVLG | 32.8

Please examine the following record next.
Request: Requested read-out: IC50 (ng/mL), immunofluorescence neutralization assay. Entry: anti-SARS-CoV-2 antibody 923 (antibody, V domains shown) VH: EVQLVESGGGVVRPGGSLRLSCAASGFIFDDYDMTWVRQAPGKGLEWVSGISWNGGNTGYADSVKGRFTISRDNAKNSLYLQMNSLRAEDTALYHCAVIMSPIPRYSGYDWAGGAFDIWGQGTMVTVSS VL: SSELTQDPAVSVALGQTVRITCQGDSLRSYYASWYQQKPGQVPILVIYDKNNRPSGIPDRFSGSSSGNTASLTITGAQAEDEADYYCNSRDSSGNAVVFGGGTKLTVLG
Response: 121
